Just for reference, patent US9278958B2 is where these values come from.

Tested on: U937, human monocytic cells
test.summary: Cytostatic assay, U937
Format: cell-based
condition.label: U-937, Table 2
Can you tell me log10 IC50 for the items I'm about to list?
Would you kindly interpret these values as log10 of IC50 expressed in µM?

Guide cases for log10 IC50, answers given:
COC(=O)c1cc(CCc2cc(OC)ccc2OC)sc1N; 0.62
CCOC(=O)c1c(N)sc(CCc2cc(OC)ccc2OC)c1C(=O)OCC; 1.30
CCOC(=O)c1cc(-c2ccccc2OC)sc1N; 1.86
CCOC(=O)c1cc(CCc2cc(OC)ccc2OC)sc1N; -0.04
COC(=O)c1c(N)sc(CCc2cc(OC)ccc2OC)c1C; 1.83

List the reported log10 IC50 of each compound below.
1. N#Cc1cc(CCc2ccccc2)sc1N
2. COc1ccc(CCc2cc(C#N)c(N)s2)cc1
3. CCOC(=O)c1cc(CCc2ccc(OC)cc2)sc1N
4. CCOC(=O)c1cc(-c2ccc(OC)cc2)sc1N
5. COc1ccc(OC)c(CCc2cc(C#N)c(N)s2)c1
6. CCOC(=O)c1c(N)sc(CCc2ccc(OC)cc2)c1C(=O)OCC

A.
1. 1.62
2. 1.23
3. 1.63
4. 2.06
5. -1.44
6. 1.90

###

System: CEM cells
test.summary: Cytostatic assay, CEM
Assay type: cell-based
condition.label: Homo sapiens, CCRF-CEM; CEM cells; Table 7, 5-arylthiomethyl-substituted 2-amino-3-carboxymethylthiophenes; read-out: IC50 (μM) CEM
parameter.measured: IC50 (µM)
Give bare numbers, in µM.

COC(=O)c1cc(CSc2ccccc2OC)sc1N [Compound D6]; 17
COC(=O)c1cc(CSc2ccccc2C)sc1N [Compound D3]; 2
COC(=O)c1cc(CSc2ccc(Cl)cc2)sc1N [Compound D4]; 1.7
COC(=O)c1cc(CSc2ccc(-c3ccccc3)cc2)sc1N [TJ184]; 1.2
COC(=O)c1cc(CSCc2cccs2)sc1N [TJ118]; 3.3

List the reported IC50 of each molecule below.
1. COC(=O)c1cc(CSc2ccc(C)cc2)sc1N [TJ55]
2. COC(=O)c1cc(CSc2ccc(OC)cc2)sc1N [TJ130]
3. COC(=O)c1cc(CCCSc2ccc(OC)cc2)sc1N [TJ169]
4. CCc1ccc(SCc2cc(C(=O)OC)c(N)s2)cc1 [TJ185]
5. COC(=O)c1cc(CSc2ccccc2N)sc1N [TJ122]

A.
1. 1.5
2. 3.9
3. 0.97
4. 0.34
5. 39

###

System: Raji, human B-lymphoma cells
test.summary: Cytostatic assay, Raji
Type: cell-based
condition.label: Table 2
Can you tell me IC50 for the items I'm about to list?
Give bare numbers, in µM.

Guide cases for IC50, answers given:
CCOC(=O)c1cc(C#Cc2ccc(OC)cc2)sc1N; 48
COC(=O)c1c(N)sc(CCc2cc(OC)ccc2OC)c1C; 49
COc1ccccc1CCc1cc(C#N)c(N)s1; 13
COC(=O)c1cc(CCc2ccccc2OC)sc1N; 19
COC(=O)c1cc(CCc2ccc(OC)cc2C)sc1N; 93
COC(=O)c1cc(CCc2ccccn2)sc1N; 76
CCOC(=O)c1cc(CCc2ccccc2OC)sc1N; 55
COC(=O)c1cc(CCc2ccsc2)sc1N; 46

List the reported IC50 of each compound below.
1. COc1ccc(CCc2cc(C#N)c(N)s2)cc1
2. CCOC(=O)c1c(N)sc(CCc2ccc(OC)cc2)c1C(=O)OCC

A.
36
58

List the reported IC50 of each compound below.
1. CCOC(=O)c1cc(-c2ccccc2OC)sc1N
2. CCOC(=O)c1cc(CCc2ccc(OC)cc2)sc1N
3. COC(=O)c1cc(-c2ccccc2OC)sc1N
4. COc1ccc(OC)c(CCc2cc(C#N)c(N)s2)c1
5. COC(=O)c1cc(-c2cc(OC)ccc2OC)sc1N
6. COC(=O)c1cc(CCc2ccccc2)sc1N
7. COC(=O)c1cc(CCc2cc(OC)ccc2OC)sc1N
8. COC(=O)c1cc(-c2ccc(OC)cc2)sc1N

A.
[48, 39, 59, 0.063, 45, 50, 2.2, 61]
